- Test system: Canis familiaris
- PROCEDURE_TEXT: Evaluated for the heart rate at dose 1.0 mg/kg in 4 animals by glucagon-induced tachycardia test
- Format: functional, Canis lupus familiaris
MEASURE: Max decrease in heart rate (%)

• CN1CCC/C1=N\CCSc1cn(C)c2ccccc12 = 13
• CC(C)COCC(CN(Cc1ccccc1)c1ccccc1)N1CCCC1 (stereo unspecified) = 16
• Cc1[nH]c2ccccc2c1SCC/N=C1\CCCN1C = 20
• CN1CCC/C1=N\CCSc1c[nH]c2ccccc12 = 6
• CC(C)NCC(O)COc1cccc2ccccc12 (stereo unspecified) = 3
• CC(C)n1cc(SCC/N=C2\CCCN2C)c2ccccc21 = 23
